Molecular target: T1, Myo5, Q04439
T1 sequence (Q04439 1072-1160, looked up): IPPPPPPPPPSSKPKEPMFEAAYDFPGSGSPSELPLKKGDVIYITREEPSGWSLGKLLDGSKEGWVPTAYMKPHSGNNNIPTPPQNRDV
Assay: SPOT array
Details: median of control spots 471

binder	SPOT intensity
HRRRRVFSIPSLKSI	0
VKPRQLFPIPLNKVD	0
MTKTPETSPPKRPMG	499
VGFRLALKFPSRITG	69
GRLRPKRIAPWHLIQ	0
RSKRLFPVRPMATAH	2
PSRRAPLQLPQLVNK	0
SHRLWLYAAPKRPKT	0
QPPLPSSAPPIPTSH	242
TKHKAPPPPPPTAET	1
RNNRPVPPPPPMRTT	1
EVTPKVPERPSRRKT	0
NFLRLLIGLPSQNEL	0
ATKSASPTLPTRRSR	0
KFIPSRPAPKPPSSA	339
DKKTKPTPPPKPSHL	0
IKTRSVPKIPSIESV	0
NRARYLPQNPDIIAG	0
TKPTPPPKPSHLKPK	0
KTRLRPAFIQQLWSS	0
RLSRLLLSLPPESFT	0
NFFRKKLGIPRKLKR	0
EQEEIAPSLPSRNSI	0
